- Test system: U-251
- Assay name: NCI tumour cell line growth inhibition, 48 h
Calls of active or inactive are those of the source. Cut-off read from the data, not from the text of the source: active = GI50 up to about 1.1 µM and inactive = higher.
Would you mind answering with one of these outcomes? active, inactive

Use the examples below as a reference point.
Compound	Assigned class
CC(OCc1ccccc1)C(NC(=O)C1CSSCC(NC(=O)C(Cc2ccccc2)NC(=O)OCc2ccccc2)C(=O)NC(Cc2ccccc2)C(=O)NC(Cc2cn(C=O)c3ccccc23)C(=O)NC(CCCCNC(=O)OCc2ccccc2)C(=O)NC(C(C)OCc2ccccc2)C(=O)N1)C(N)=O (stereo not given)	inactive
CN(C)CCNc1ccc(NCC[N+](C)(C)Cc2ccc([N+](=O)[O-])cc2)c2c1C(=O)c1ccccc1C2=O	inactive
COC1CCC(OC2CC(C3(C)CCC4(CC(O)C(C)C(C(C)/C=C(\C)C(=O)C(C)CC(C)C(=O)O)O4)O3)OC3(OC(C4OC(O)(CO)C(C)CC4C)CC3C)C2C)OC1C (stereo not given)	active
Nc1ccn(C2OC(COP(=O)(O)Oc3ccccc3)C(O)C2O)c(=O)n1 (stereo not given)	inactive

Consider the record given below.
In: Which outcome did this test record for the compound CCOC(=O)c1cc2c3c(c(C(C)=O)c(OC)c2[nH]1)N(C(=O)CC)CC3 ?
Out: inactive

====

- Tested on: SNB-75
- Assay name: NCI tumour cell line growth inhibition, 48 h
Activity calls are given as the source filed them. Rule as the data show it: active = GI50 up to about 1.1 µM and inactive = higher.
Property label: GI50

The following compounds have reported results that may help.
Compound	GI50
O=C(Cc1ccc2ccccc2c1)NCc1ccc(C(=O)NCCc2ccccc2)cc1	> 100 µM (inactive)
C[C@@]12C[C@@H](c3ccccc3O1)N1CCCSC1=N2	> 100 µM (inactive)
CCCCSC1=N/C(=C\c2ccccc2O)C(=O)N1	> 100 µM (inactive)
CCC(/C(=N/NC(=O)C[N+](C)(C)C)c1ccccc1)C1OC(=O)c2ccccc21 (stereo unspecified)	> 100 µM (inactive)
CC12CCC(C(=O)n3c1nc1ccccc13)C(C)(C)O2 (stereo unspecified)	15.6 µM (inactive)

Value sought: GI50, system SNB-75, item OC1OCC(COc2cc(Cl)c(Cl)cc2Cl)OC1O (stereo unspecified) . Result: 26.2 µM (inactive)

====

- Test system: HOP-92
- Assay name: NCI tumour cell line growth inhibition, 48 h
The source made the active and inactive calls. Rule as the data show it: active = GI50 up to about 1.1 µM and inactive = higher.
Property label: GI50

Molecule	Property label	Data value
COC(CNC(=O)C(C)NC(=O)CCc1ccccc1)OC (centres undefined)	GI50	> 100 µM (inactive)

Parameter requested: GI50. Apply to each item below.
1. COC12C=CC(CC1)C(C)(C)C2OS(C)(=O)=O (centres undefined)
2. Nc1ccc2c3[nH]c4cc(N)ccc4cc-3nc2c1
3. O=[N+]([O-])c1ccc(N2C[N+](c3ccccc3)=NC(c3ccccc3)=N2)cc1
4. COc1ccc(N2NC(c3ccccc3)(c3ccccc3)C(C)C2=O)cc1 (centres undefined)
5. CC1(C)C(=O)C(=Cc2ccco2)C1=O

Out:
1. > 100 µM (inactive)
2. 0.0422 µM (active)
3. 35.7 µM (inactive)
4. 48.5 µM (inactive)
5. > 100 µM (inactive)

Each molecule below has a reported value. Please supply its GI50.
1. Cc1ccc(S(=O)(=O)Nn2c(O)c(C#N)c(-c3ccc(N(C)C)cc3)c(C#N)c2=O)cc1
2. O=C(O)CCSc1nnc(COc2ccc(Cl)cc2)n1-c1ccccc1
3. Ic1ccc2c(c1)N(c1ccccc1)c1cc([N-]c3ccc4nc5ccc(I)cc5[n+](-c5ccccc5)c4c3)ccc1N2

Out:
1: > 50 µM (inactive); 2: > 100 µM (inactive); 3: > 100 µM (inactive)

Need GI50 for each of these molecules.
1. CCOC(=O)/N=c1\ss/c(=N\C(=S)N(C)C)n1-c1ccccc1
2. c1ccc2c(c1)C(=Nc1ccc(N=C3c4ccccc4-c4ccccc43)cc1)c1ccccc1-2

Out:
1. 25.8 µM (inactive)
2. > 100 µM (inactive)

Please state, for each entry, its recorded GI50.
1. O=C(c1ccccc1Cl)n1oc2ccccc2c1=O
2. COC(C)(C)/C=C/c1[nH]c2ccccc2c1CC(=O)NCCc1cn(C(c2ccccc2)(c2ccccc2)c2ccccc2)cn1
3. O=C1CCCC1CN1CCCC1 (centres undefined)

Out:
1: 25.2 µM (inactive); 2: 5.33 µM (inactive); 3: 6.56 µM (inactive)
